Parameter protein stability index: see the listing below.
B1: SMOC2 (parent)
chain: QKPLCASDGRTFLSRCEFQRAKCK

Variants of: B1
Assay: protein stability index of a GFP-peptide fusion (GPS, HEK-293T) (PSI 1-6); higher = more stable;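 further: lentivirally expressed fusions sorted by FACS into six bins by GFP to DsRed ratio, PSI derived from sequencing read proportions per bin multiplied by bin number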
Settings: c terminus: a fixed tail appended
// no unit string in output, number only

Incoming: Tell me the measured protein stability index of K24V , please.
Outgoing: 2.62

Incoming: Tell me the measured protein stability index of S14E , please.
Outgoing: 3.08

Incoming: Tell me the measured protein stability index of L4K , please.
Outgoing: 2.52

Incoming: Tell me the measured protein stability index of S7N , please.
Outgoing: 3.76

Incoming: Tell me the measured protein stability index of F12I , please.
Outgoing: 3.4

Incoming: Tell me the measured protein stability index of C23T , please.
Outgoing: 2.84
